measured_target: Neu5Ac(a2-6)Gal(b1-4)GlcNAc(b1-3)GalNAc
method_notes: glycan array binding signal (z-score within array); higher = stronger binding
measurement_setup: glycan notation: IUPAC condensed, linker removed
About 410 targets per protein were measured; listed, in parts, are those with the strongest signals and a random draw of the rest.
Hi, to clarify the labels: class 1 covers glycan array binding signal (z-score) from -0.08 upward, class 0 covers anything below -0.08.

>>> classification("Tamarinin (protein) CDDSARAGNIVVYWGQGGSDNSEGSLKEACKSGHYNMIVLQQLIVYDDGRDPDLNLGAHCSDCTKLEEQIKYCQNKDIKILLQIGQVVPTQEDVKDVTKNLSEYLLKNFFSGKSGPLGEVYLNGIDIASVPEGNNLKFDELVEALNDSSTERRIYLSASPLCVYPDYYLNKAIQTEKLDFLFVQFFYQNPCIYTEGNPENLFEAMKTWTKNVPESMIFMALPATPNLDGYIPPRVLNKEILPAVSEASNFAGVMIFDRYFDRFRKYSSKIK")
"class 1"
>>> classification("Mincle (Homo sapiens), Q9ULY5 (protein) MNSSKSSETQCTERGCFSSQMFLWTVAGIPILFLSACFITRCVVTFRIFQTCDEKKFQLPENFTELSCYNYGSGSVKNCCPLNWEYFQSSCYFFSTDTISWALSLKNCSAMGAHLVVINSQEEQEFLSYKKPKMREFFIGLSDQVVEGQWQWVDGTPLTKSLSFWDVGEPNNIATLEDCATMRDSSNPRQNWNDVTCFLNYFRICEMVGINPLNKGKSL")
"class 1"
>>> classification("UEA-I (Ulex europaeus), P22972 (protein) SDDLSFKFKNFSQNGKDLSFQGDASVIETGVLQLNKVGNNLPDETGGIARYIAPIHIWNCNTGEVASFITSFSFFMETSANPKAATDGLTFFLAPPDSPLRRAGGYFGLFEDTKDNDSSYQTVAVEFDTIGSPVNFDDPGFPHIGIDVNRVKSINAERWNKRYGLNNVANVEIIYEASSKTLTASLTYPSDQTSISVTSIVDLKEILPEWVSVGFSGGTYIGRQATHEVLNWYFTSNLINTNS")
"class 0"
>>> classification("Gal 2 (Canis lupus) (protein) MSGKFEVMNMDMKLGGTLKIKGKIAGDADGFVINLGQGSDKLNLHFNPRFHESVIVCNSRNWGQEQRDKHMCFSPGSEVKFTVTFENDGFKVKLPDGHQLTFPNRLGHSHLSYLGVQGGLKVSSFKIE")
"class 1"
>>> classification("ArathEULS3 TAP (Arabidopsis thaliana) (protein) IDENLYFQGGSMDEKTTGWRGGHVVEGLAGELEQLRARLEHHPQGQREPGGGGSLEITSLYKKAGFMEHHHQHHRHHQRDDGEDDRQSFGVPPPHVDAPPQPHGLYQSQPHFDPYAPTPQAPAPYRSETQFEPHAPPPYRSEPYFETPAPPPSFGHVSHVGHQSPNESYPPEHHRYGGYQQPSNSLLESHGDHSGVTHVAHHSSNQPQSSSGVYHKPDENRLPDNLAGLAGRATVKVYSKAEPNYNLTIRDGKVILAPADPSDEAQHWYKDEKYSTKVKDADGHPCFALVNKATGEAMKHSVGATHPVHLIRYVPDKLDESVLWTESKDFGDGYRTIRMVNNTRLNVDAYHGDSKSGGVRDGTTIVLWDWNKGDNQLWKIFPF")
"class 1"
>>> classification("Threefoil (Haloarcula marismortui) (protein) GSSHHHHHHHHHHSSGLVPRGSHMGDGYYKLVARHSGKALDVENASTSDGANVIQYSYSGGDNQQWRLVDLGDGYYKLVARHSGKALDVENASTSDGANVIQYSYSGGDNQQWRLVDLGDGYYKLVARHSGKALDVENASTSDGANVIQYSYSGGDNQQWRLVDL")
"class 0"
>>> classification("B936 (Bifidobacterium sp) (protein) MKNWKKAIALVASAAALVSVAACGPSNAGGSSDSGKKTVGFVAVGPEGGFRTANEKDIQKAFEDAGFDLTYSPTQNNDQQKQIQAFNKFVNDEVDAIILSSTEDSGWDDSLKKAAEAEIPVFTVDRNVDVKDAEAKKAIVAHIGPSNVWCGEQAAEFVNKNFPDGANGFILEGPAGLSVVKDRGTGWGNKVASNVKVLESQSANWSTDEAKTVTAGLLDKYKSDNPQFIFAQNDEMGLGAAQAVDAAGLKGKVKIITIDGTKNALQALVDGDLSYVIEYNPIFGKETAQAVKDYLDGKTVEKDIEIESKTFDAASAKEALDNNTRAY")
"class 1"
>>> classification("PhypaEULS3 (Physcomitrella patens) (protein) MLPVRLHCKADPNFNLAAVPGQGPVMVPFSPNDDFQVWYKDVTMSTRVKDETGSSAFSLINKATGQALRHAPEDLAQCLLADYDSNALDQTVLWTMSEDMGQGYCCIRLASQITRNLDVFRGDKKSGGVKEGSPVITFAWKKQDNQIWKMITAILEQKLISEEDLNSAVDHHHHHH")
"class 1"
>>> classification("SP15308B-bot-339-22-339 (Bacteroides ovatus) (protein) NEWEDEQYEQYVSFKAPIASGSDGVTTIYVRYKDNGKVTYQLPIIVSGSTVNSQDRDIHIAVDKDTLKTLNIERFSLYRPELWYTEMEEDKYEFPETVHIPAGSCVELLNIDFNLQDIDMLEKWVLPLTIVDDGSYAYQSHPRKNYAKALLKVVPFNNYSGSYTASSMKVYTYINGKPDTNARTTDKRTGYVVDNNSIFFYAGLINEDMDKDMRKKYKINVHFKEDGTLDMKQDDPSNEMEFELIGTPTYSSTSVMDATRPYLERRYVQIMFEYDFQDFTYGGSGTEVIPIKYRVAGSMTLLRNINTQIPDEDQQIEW")
"class 0"
>>> classification("GSL-I (Griffonia simplicifolia) (protein) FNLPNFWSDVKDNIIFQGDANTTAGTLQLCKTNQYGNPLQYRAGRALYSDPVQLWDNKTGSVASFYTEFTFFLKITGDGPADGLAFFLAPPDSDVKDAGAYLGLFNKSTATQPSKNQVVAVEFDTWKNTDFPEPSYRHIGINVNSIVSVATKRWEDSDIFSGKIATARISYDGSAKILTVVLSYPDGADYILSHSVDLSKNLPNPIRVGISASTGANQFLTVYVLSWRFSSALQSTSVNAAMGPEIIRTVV")
"class 0"
